All figures here come from ChEMBL document CHEMBL1140535.

# Tested on: NCI-H1299
# experiment.summary: Inhibition of camptothecin induced mitotic arrest in human NCI-H1299 cells after 18 hrs
# Type: functional, cell-based
# cond: NCI-H1299, 18 h
log10 of EC50 values, listed per item
Field: value | Transform: log10 | Quantity: EC50 | Unit: nM

chemical.smiles	readout.name	quantitative.result
N#Cc1ccc2c(CCCN)cc3cc[nH]c(=O)c3c2c1	log10 of EC50	3.34
NCCCc1cc2c(-c3ccccc3)c[nH]c(=O)c2c2cc(-c3cn[nH]c3)ccc12	log10 of EC50	2.15
C=Cc1c[nH]c(=O)c2c1cc(CCCN)c1ccc(-c3cn[nH]c3)cc12	log10 of EC50	2.32
NCCc1cc2cc[nH]c(=O)c2c2cc(-c3ccn[nH]3)ccc12	log10 of EC50	2.00
NCCc1cc2cc[nH]c(=O)c2c2cc(-c3cn[nH]c3)ccc12	log10 of EC50	1.90

Can you look up log10 of EC50 on NCI-H1299 for `NCCCc1cc2c(-c3ccc(F)cc3)c[nH]c(=O)c2c2cc(-c3cn[nH]c3)ccc12` ? 2.57

Next molecule: `NCCc1cc2cc[nH]c(=O)c2c2cc(-c3ccc(CN4CCOCC4)cc3)ccc12` 2.11

Next molecule: `NCCCc1cc2cc[nH]c(=O)c2c2cc(-c3ccn[nH]3)ccc12` 2.18

Next molecule: `NCCCc1cc2cc[nH]c(=O)c2c2cc(-c3ccc[nH]3)ccc12` 1.64

----------
Parameter 'readout' = pIC50; parameter 'system' = Serine/threonine-protein kinase Chk1 (Homo sapiens).
Remember, pIC50 is on a log scale: it is -log10 of the molar concentration.

Past entries and their recorded results:
chemical.smiles	pIC50
NCCc1cc2cc[nH]c(=O)c2c2cc(Br)ccc12	8.52
NCCCc1cc2c(-c3cccc(Cl)c3)c[nH]c(=O)c2c2cc(-c3cn[nH]c3)ccc12	7.94
Cn1cc(-c2ccc3c(CCCN)cc4cc[nH]c(=O)c4c3c2)cn1	8.04
COC(=O)c1cc2cc[nH]c(=O)c2c2cc(Cl)ccc12	6.44

Need pIC50 of `CN(C)CCNC(=O)c1ccc2c(CCCN)cc3cc[nH]c(=O)c3c2c1` , thanks. 8.70

----------
# assayed.target: Serine/threonine-protein kinase Chk1 (Homo sapiens, UniProt O14757)
# Sequence (O14757 whole entry): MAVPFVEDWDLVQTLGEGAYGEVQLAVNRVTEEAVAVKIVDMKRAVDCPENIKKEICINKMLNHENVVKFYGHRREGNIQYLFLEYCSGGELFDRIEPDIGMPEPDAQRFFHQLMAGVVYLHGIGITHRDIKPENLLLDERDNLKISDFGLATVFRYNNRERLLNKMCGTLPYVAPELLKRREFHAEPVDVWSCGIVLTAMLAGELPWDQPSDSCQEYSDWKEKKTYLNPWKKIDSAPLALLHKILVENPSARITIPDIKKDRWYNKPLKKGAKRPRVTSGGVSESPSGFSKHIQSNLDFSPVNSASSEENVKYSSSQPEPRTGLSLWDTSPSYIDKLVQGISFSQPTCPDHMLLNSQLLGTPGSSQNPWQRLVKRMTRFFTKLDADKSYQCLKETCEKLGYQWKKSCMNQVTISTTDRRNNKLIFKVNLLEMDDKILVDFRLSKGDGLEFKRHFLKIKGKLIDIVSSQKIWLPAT
# experiment.summary: Inhibition of human Chk1 expressed in baculovirus by time-resolved fluorescence assay
readout.name: pIC50
Remember, pIC50 is on a log scale: it is -log10 of the molar concentration.

Past entries and their recorded results:
chemical.smiles	quantitative.result
NCCCc1cc2c(-c3cccc(O)c3)c[nH]c(=O)c2c2cc(-c3cn[nH]c3)ccc12	9.00
NCCCc1cc2cc[nH]c(=O)c2c2ccccc12	7.01
NCCc1cc2cc[nH]c(=O)c2c2cc(-c3cn[nH]c3)ccc12	8.52
NCCCc1cc2c(-c3ccccc3Cl)c[nH]c(=O)c2c2cc(-c3cn[nH]c3)ccc12	9.10

Need pIC50 of `O=c1[nH]ccc2c3[nH]c(-c4ccccc4)nc3c3ccc(F)cc3c12` , thanks. 5.97

Next molecule: `CN(C)CCc1cc2cc[nH]c(=O)c2c2cc(Br)ccc12` 6.89

Next molecule: `O=c1[nH]ccc2cc(CO)c3ccc(Br)cc3c12` 6.36
